System: TK-10 renal
EXPERIMENT DESCRIPTION: NCI tumour cell line growth inhibition, 48 h
Please note: 1 applies when TGI is 20 µM or greater, and 0 applies otherwise.

COMPOUND	LABEL VALUE
COC(=O)[C@H]1[C@H](OC(=O)[C@@H](OC)c2ccccc2)ON2CC[C@@H](OC(=O)c3ccccc3)[C@H]12	1
O=C(O)c1ccccc1/C=C1\Cc2ccc3c(c2C1=O)CCCC3	1
O=c1[nH]nc(Cc2ccc(Cl)cc2)n1Nc1ccccc1	1
COc1ccc([N+](=O)[O-])cc1[I+]c1cc([N+](=O)[O-])ccc1OC	1

TGI >= 20 µM for `CC(=O)Nc1ccc2c(c1)C(=Nc1ccc(C(=O)O)cc1)c1ccccc1-2` ?
1

Decide: TGI of `CC(C)c1cccc(C(C)C)c1NC(=S)Nc1ccccc1` >= 20 µM?
1

In plain terms: is recorded TGI at least 20 µM for Cn1cccc1C1CC(=O)N(CCC[Se]C#N)C1=O (stereo unspecified) ?
0

Could you tell me if the measured TGI of `CCOc1ccc(NC(=O)/C(=C/c2ccccc2)C(C)=O)cc1` reaches 20 µM or more?
1

In plain terms: is recorded TGI at least 20 µM for Cc1c(O)c(OC2OC(CO)C(O)C(O)C2O)cc2c1CC[C@@H]1C2(C)C(=O)C[C@]2(C)[C@@H]([C@@](C)(O)C(O)CCC(C)(C)O)[C@H](O)C[C@@]12C (stereo partly specified) ?
1

Numbers sourced from PubChem BioAssay (NCI).
